Tested on: Punta Toro virus
test-name: Antiviral activity against Punta Toro virus assessed as inhibition of virus-induced cytopathicity at 100 uM by cell-based assay
Format: functional, organism-based
Calls of active or inactive are those of the source. The calls are words filed in the database; no cut-off is given here.
experimental-endpoint: Activity

smiles_representation=Cc1ccc(-c2nc3c(=O)[nH]cnc3n2[C@@H]2O[C@H](CO)[C@@H](O)[C@H]2O)cc1 obs_value=inactive
smiles_representation=O=c1[nH]cnc2c1nc(-c1cccc(C(F)(F)F)c1)n2[C@@H]1O[C@H](CO)[C@@H](O)[C@H]1O obs_value=inactive
smiles_representation=COc1cccc(-c2nc3c(=O)[nH]cnc3n2[C@@H]2O[C@H](CO)[C@@H](O)[C@H]2O)c1 obs_value=inactive

The measurements presented in this section are drawn from ChEMBL document CHEMBL3286377.
